- Protocol Description: log k′ (degree of lipophilic character) by gradient HPLC
- Format: physicochemical
- Condition Context: XTerra MS C18 column; acetonitrile/pH6.8 buffer gradient 5:95-95:5/20 min
Experimental Endpoint: log k′

Illustrative cases are given below, each with its answer.
[[record]]
compound = "CONC(=O)C(C)(C)/C=C/n1ncc(C(=O)N[C@H]2C3CC4CC2C[C@](O)(C4)C3)c1OCC(C)C"
data_value = 0.794

[[record]]
compound = "CC(C)COc1c(C(=O)N[C@H]2C3CC4CC2C[C@](COC(N)=O)(C4)C3)cnn1/C=C/C(C)(C)C(=O)NC(N)=O"
data_value = 0.87

[[record]]
compound = "COC(=O)N[C@]12CC3CC(C1)[C@@H](NC(=O)c1cnn(/C=C/C(C)(C)NC(C)=O)c1OCC(C)C)C(C3)C2"
data_value = 0.886

[[record]]
compound = "CCC(=O)N[C@]12CC3CC(C1)[C@@H](NC(=O)c1cnn(/C=C/C(C)(C)NC(=O)OC)c1OCC(C)C)C(C3)C2"
data_value = 0.909

[[record]]
compound = "CC(C)COc1c(C(=O)N[C@H]2C3CC4CC2C[C@](O)(C4)C3)cnn1/C=C/C(C)(C)NC(=O)C(C)C"
data_value = 0.87

[[record]]
compound = "CC(C)COc1c(C(=O)N[C@H]2C3CC4CC2C[C@](OC(N)=O)(C4)C3)cnn1/C=C/C(C)(C)N1CCOC1=O"
data_value = 0.879


Batch of 2 compounds: report log k′ for each.
1. CC(C)COc1c(C(=O)N[C@H]2C3CC4CC2C[C@](OC(N)=O)(C4)C3)cnn1/C=C/C(C)(C)NC(=O)COc1ccccc1
2. CCC(=O)N[C@]12CC3CC(C1)[C@@H](NC(=O)c1cnn(/C=C/C(C)(C)C(N)=O)c1OCC(C)C)C(C3)C2

[0.95, 0.845]

Batch of 3 compounds: report log k′ for each.
1. CONC(=O)C(C)(C)/C=C/n1ncc(C(=O)N[C@H]2C3CC4CC2C[C@](OC(N)=O)(C4)C3)c1OCC(C)C
2. CC(=O)NC(C)(C)/C=C/n1ncc(C(=O)N[C@H]2C3CC4CC2C[C@](OC(N)=O)(C4)C3)c1OCC(C)C
3. CC(C)COc1c(C(=O)N[C@H]2C3CC4CC2C[C@](O)(C4)C3)cnn1/C=C/C(C)(C)NC(=O)C1CCOCC1

1. 0.838
2. 0.798
3. 0.818

Batch of 3 compounds: report log k′ for each.
1. C=CCC1C2CCC(C2)C1NC(=O)c1cnn(/C=C/C(C)(C)NC(C)=O)c1OCC(C)C (centres unmarked)
2. COC(=O)NC(C)(C)/C=C/n1ncc(C(=O)NC2CCCCCCCCC2)c1OCC(C)C
3. CC(C)COc1c(C(=O)N[C@H]2C3CC4CC2C[C@](O)(C4)C3)cnn1/C=C/C(C)(C)NC(=O)N1CCOCC1

1. 0.981
2. 1.066
3. 0.813

###

- Protocol Description: log k′ (degree of lipophilic character) by gradient HPLC
- Type: physicochemical
- Condition Context: XTerra MS C18 column; acetonitrile/pH6.8 buffer gradient 5:95-95:5/20 min
Kindly return label 1 if reported log k′ is no lower than 0.9; return label 0 if it is lower.

[[record]]
smiles = "CC(=O)NC(C)(C)/C=C/n1ncc(C(=O)N[C@H]2C3CCCC2C[C@@H](COC(N)=O)C3)c1OCC(C)C"
label = "label 0"


Hi team, for CC(C)COc1c(C(=O)N[C@H]2C3CC4CC2C[C@](OC(N)=O)(C4)C3)cnn1/C=C/C(C)(C)NC(=O)C1CCOCC1 , is the recorded log k′ at or above 0.9?
label 0

Hi team, for CONC(=O)[C@]12CC3CC(C1)[C@@H](NC(=O)c1cnn(/C=C/C(C)(C)NC(C)=O)c1OCC(C)C)C(C3)C2 , is the recorded log k′ at or above 0.9?
label 0

Hi team, for CNC(=O)C(C)(C)/C=C/n1ncc(C(=O)N[C@H]2C3CC4CC2C[C@](OC(N)=O)(C4)C3)c1OCC(C)C , is the recorded log k′ at or above 0.9?
label 0

Hi team, for CC(C)COc1c(C(=O)N[C@H]2C3CC4CC2C[C@](OC(N)=O)(C4)C3)cnn1/C=C/C(C)(C)NC(=O)C1CCCC1 , is the recorded log k′ at or above 0.9?
label 1

Hi team, for CC(C)COc1c(C(=O)N[C@H]2C3CC4CC2C[C@](OC(N)=O)(C4)C3)cnn1/C=C/C(C)(C)NC(=O)CCC1CCCC1 , is the recorded log k′ at or above 0.9?
label 1

Hi team, for CCONC(=O)[C@]12CC3CC(C1)[C@@H](NC(=O)c1cnn(/C=C/C(C)(C)NC(C)=O)c1OCC(C)C)C(C3)C2 , is the recorded log k′ at or above 0.9?
label 0
